The measurements presented in this section are drawn from patent US20250368649A1.

Exercise: for every item that follows, state its recorded inhibition at 0.01 µM.
target: KRas G13D (Homo sapiens, UniProt P01116, G13D); assay type: binding; settings: single point, 10 nM compound, read-out: Binding to KRas (% inhibition at 10 nM) G13D
Sequence (P01116 1-169 isoform P01116-2 G13D): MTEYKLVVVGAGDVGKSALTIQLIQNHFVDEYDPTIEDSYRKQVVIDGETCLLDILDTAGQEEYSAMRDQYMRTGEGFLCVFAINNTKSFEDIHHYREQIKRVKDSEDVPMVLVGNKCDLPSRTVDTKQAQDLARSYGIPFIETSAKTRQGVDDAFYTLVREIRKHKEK
Just the number please, in %, no unit attached.

Just so you know, measured inhibition at 0.01 µM for CCc1c(F)ccc2cc(O)cc(N3CCc4c(nc(OC[C@@]56CCCN5C[C@H](F)C6)nc4N4CCCn5nc(C(=O)N(CC)CC)cc5C4)C3)c12 came out at 95

Just so you know, measured inhibition at 0.01 µM for CCc1c(F)ccc2cc(O)cc(N3CCc4c(nc(OC[C@@]56CCCN5C[C@H](F)C6)nc4N4CCCn5nc(C(=O)N6CC7CC(C6)N7)cc5C4)C3)c12 came out at 98

Just so you know, measured inhibition at 0.01 µM for CCc1c(F)ccc2cc(O)cc(N3CCc4c(nc(OC[C@@]56CCCN5C[C@H](F)C6)nc4N4CCCn5nc6c(c5C4)CCCNC6=O)C3)c12 came out at 99

Just so you know, measured inhibition at 0.01 µM for CCc1c(F)ccc2cc(O)cc(N3CCc4c(nc(OC[C@@]56CCCN5C[C@H](F)C6)nc4N4CCCn5nc(C(=O)NC6CCC6)cc5C4)C3)c12 came out at 90

Just so you know, measured inhibition at 0.01 µM for CCc1c(F)ccc2cc(O)cc(N3CCc4c(nc(OC[C@@]56CCCN5C[C@H](F)C6)nc4N4CCCn5nc(C(=O)N6C7CCC6CC7)cc5C4)C3)c12 came out at 94

Just so you know, measured inhibition at 0.01 µM for CCNC(=O)c1nn2c(c1C)CN(c1nc(OC[C@@]34CCCN3C[C@H](F)C4)nc3c1CCN(c1cc(O)cc4ccc(F)c(CC)c14)C3)CCC2 came out at 92

Just so you know, measured inhibition at 0.01 µM for CCc1c(F)ccc2cc(O)cc(N3CCc4c(nc(OC[C@@]56CCCN5C[C@H](F)C6)nc4N4CCCn5nc(C(=O)NC6CC6)cc5C4)C3)c12 came out at 93

Just so you know, measured inhibition at 0.01 µM for CCc1c(F)ccc2cc(O)cc(N3CCc4c(nc(OC[C@@]56CCCN5C[C@H](F)C6)nc4N4CCCn5nc(C(=O)N6CC7CCC(C6)N7)cc5C4)C3)c12 came out at 99

Just so you know, measured inhibition at 0.01 µM for CCc1c(F)ccc2cc(O)cc(N3CCc4c(nc(OC[C@@]56CCCN5C[C@H](F)C6)nc4N4CCCn5nc(C(=O)NCCOC)cc5C4)C3)c12 came out at 93

Just so you know, measured inhibition at 0.01 µM for CCc1c(F)ccc2cc(O)cc(N3CCc4c(nc(OC[C@@]56CCCN5C[C@H](F)C6)nc4N4CCCn5nc(C(=O)N6CCC7CC76)cc5C4)C3)c12 (stereo partly drawn) came out at 96

Just so you know, measured inhibition at 0.01 µM for CCc1c(F)ccc2cc(O)cc(N3CCc4c(nc(OC[C@@]56CCCN5C[C@H](F)C6)nc4N4CCCn5nc(N)c(Cl)c5C4)C3)c12 came out at 94

Just so you know, measured inhibition at 0.01 µM for CCc1c(F)ccc2cc(O)cc(N3CCc4c(nc(OC[C@@]56CCCN5C[C@H](F)C6)nc4N4Cc5cn(C(=O)N(C)C)nc5CC(C)C4)C3)c12 (stereo partly drawn) came out at 55
